Values from patent US8119681B2

molecular target: human GR (Homo sapiens); test: Trans-Activation Modulation of Glucocorticoid Receptor (GRAMMER), MMTV-LUC reporter gene; type: cell-based; parameters: endogenous in cells; conditions: Table 1; A549 cells; IP = inflection point; read-out: Transactivation A549 Cells GRAMMER IP
Give measured EC50 for each item. Keep answers brief.
Entry rule: numbers only, all in nM.

Q. Query (molecule): C[C@]12Cc3cnn(-c4ccc(F)cc4)c3C=C1CC[C@@]2(O)CCc1ccccc1CC(N)=O ; field requested: EC50
A. 261

Q. Query (molecule): CC(C)(C)NC(=O)c1c(F)cccc1CC[C@]1(O)CCC2=Cc3c(cnn3-c3ccc(F)cc3)C[C@@]21C ; field requested: EC50
A. 108

Q. Query (molecule): C[C@]12Cc3cnn(-c4ccc(F)cc4)c3C=C1CC[C@@]2(O)CCc1ccccc1C1(NS(=O)(=O)C2CC2)CC1 ; field requested: EC50
A. 121

Q. Query (molecule): C[C@H](CNC(=O)c1ccccc1CC[C@]1(O)CCC2=Cc3c(cnn3-c3ccc(F)cc3)C[C@@]21C)C(F)(F)F ; field requested: EC50
A. 183

Q. Query (molecule): C=C(C)CNC(=O)c1ccccc1CC[C@]1(O)CCC2=Cc3c(cnn3-c3ccc(F)cc3)C[C@@]21C ; field requested: EC50
A. 134

Q. Query (molecule): C=CCNC(=O)c1ccccc1CC[C@]1(O)CCC2=Cc3c(cnn3-c3ccc(F)cc3)C[C@@]21C ; field requested: EC50
A. 62

Q. Query (molecule): CC(CNC(=O)c1c(F)cccc1CC[C@]1(O)CCC2=Cc3c(cnn3-c3ccc(F)cc3)C[C@@]21C)C(F)(F)F (stereo partly shown) ; field requested: EC50
A. 91

---

Give measured pEC50 for each item. Keep answers brief.
Target: human GR (Homo sapiens, UniProt P04150)
Sequence (P04150 1-777): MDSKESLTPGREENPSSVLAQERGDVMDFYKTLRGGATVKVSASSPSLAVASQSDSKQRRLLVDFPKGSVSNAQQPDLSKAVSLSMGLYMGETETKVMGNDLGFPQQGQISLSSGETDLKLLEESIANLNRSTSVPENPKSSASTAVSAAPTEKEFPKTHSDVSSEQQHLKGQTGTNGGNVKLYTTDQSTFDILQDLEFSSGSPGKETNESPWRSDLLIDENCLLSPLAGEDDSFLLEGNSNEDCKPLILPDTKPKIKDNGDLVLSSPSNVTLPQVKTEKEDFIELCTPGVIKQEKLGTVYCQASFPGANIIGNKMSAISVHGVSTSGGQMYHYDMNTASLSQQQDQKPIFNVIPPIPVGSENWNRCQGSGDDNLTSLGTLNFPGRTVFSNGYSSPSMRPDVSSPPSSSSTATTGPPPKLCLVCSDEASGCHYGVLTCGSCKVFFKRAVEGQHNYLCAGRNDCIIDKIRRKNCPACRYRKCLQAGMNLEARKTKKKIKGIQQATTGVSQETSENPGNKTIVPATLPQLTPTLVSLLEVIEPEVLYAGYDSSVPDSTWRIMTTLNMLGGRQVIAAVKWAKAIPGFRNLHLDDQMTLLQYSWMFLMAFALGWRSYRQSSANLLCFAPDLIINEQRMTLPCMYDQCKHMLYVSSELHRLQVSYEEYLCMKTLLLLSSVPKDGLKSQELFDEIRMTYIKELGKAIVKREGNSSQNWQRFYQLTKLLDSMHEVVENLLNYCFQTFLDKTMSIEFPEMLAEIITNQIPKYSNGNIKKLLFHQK
Assay: Trans-Activation Modulation of Glucocorticoid Receptor (GRAMMER), MMTV-LUC reporter gene
Assay type: cell-based
Parameters: endogenous in cells
Details: Table 1; A549 cells; IP = inflection point; read-out: Transactivation A549 Cells GRAMMER IP
Here pEC50 is given on a logarithmic scale as minus log10 of the concentration in mol/L.

Q. Query (compound): CC(=O)Cc1ccccc1CC[C@]1(O)CCC2=Cc3c(cnn3-c3ccc(F)cc3)C[C@@]21C [Example 157] ; field requested: pEC50
A. 6.62

Q. Query (compound): C[C@]12Cc3cnn(-c4ccc(F)cc4)c3C=C1CC[C@@]2(O)CCc1cccc(F)c1CNS(=O)(=O)C1CC1 [Example 88] ; field requested: pEC50
A. 7.28

Q. Query (compound): CN(C)S(=O)(=O)c1ccccc1CC[C@]1(O)CCC2=Cc3c(cnn3-c3ccc(F)cc3)C[C@@]21C [Example 138] ; field requested: pEC50
A. 6.86

Q. Query (compound): C[C@]12Cc3cnn(-c4ccc(F)cc4)c3C=C1CC[C@@]2(O)CCc1ccccc1NS(=O)(=O)C1CC1 [Example 15] ; field requested: pEC50
A. 6.63

Q. Query (compound): COC(=O)C(C)(C)NC(=O)c1ccccc1CC[C@]1(O)CCC2=Cc3c(cnn3-c3ccc(F)cc3)C[C@@]21C [Example 52] ; field requested: pEC50
A. 7.68

Q. Query (compound): C[C@]12Cc3cnn(-c4ccc(Cl)cc4)c3C=C1CC[C@@]2(O)CCc1cccc(F)c1C(N)=O [Example 185] ; field requested: pEC50
A. 6.84

Q. Query (compound): COc1cccc(CC[C@]2(O)CCC3=Cc4c(cnn4-c4ccc(F)cc4)C[C@@]32C)c1C(N)=O [Example 189] ; field requested: pEC50
A. 7.55
